Entries and their Affinity increase values follow.
- TARGET ENTITY: T1, AFP158/HLA-A*02:01 complex (human)
- T1 construct: flowed as analyte in SPR
- TEST DESCRIPTION: SPR, fold vs AS170036 VL1VH1;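 also: crude scFv muteins immobilised on a sensor chip, peptide–MHC complex passed over at several concentrations, binding then buffer-driven dissociation, KD estimated from on- and off-rates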
VALUE TYPE: Affinity increase

binder="AS170036 VL1VH1-57K98Q108S (scFv, also called 75-AS170036 VL1VH1-57K98Q108S) scFv: QSALTQPRSVSGSPGQSVTISCAGTSSDVGSENYVSWYQQHPGKAPKLMIYQVNKRASGVPDRFSGSKSGNTASLTISGLQAEDEADYYCASYRSSDQNIVFGGGTKLTVLGGGGSGGGGSGGGGSEVQLVESGGGLVQPGGSLRLSCAASGFTFSSYAMSWVRQAPGKGLEWVSTINSGTGKPYYADSVKGRFTISRDNSKNTLYLQMNSLRAEDTAVYYCAKNFFDGSWFLSPPAMDYWGQGTLVTVSSHHHHHH" value_type="Affinity increase" measured_result="33 fold"
binder="AS170036 VL1VH1-57H98Q108A (scFv, also called 64-AS170036 VL1VH1-57H98Q108A) scFv: QSALTQPRSVSGSPGQSVTISCAGTSSDVGSENYVSWYQQHPGKAPKLMIYQVNKRASGVPDRFSGSKSGNTASLTISGLQAEDEADYYCASYRSSDQNIVFGGGTKLTVLGGGGSGGGGSGGGGSEVQLVESGGGLVQPGGSLRLSCAASGFTFSSYAMSWVRQAPGKGLEWVSTINSGTGHPYYADSVKGRFTISRDNSKNTLYLQMNSLRAEDTAVYYCAKNFFDGSWFLAPPAMDYWGQGTLVTVSSHHHHHH" value_type="Affinity increase" measured_result="128 fold"
